target: PI3K-gamma (Homo sapiens, UniProt P48736); construct: Thermo Fisher Scientific-Biosciences Life Sciences Solutions, Madison, WI (contract assay service); assay: PI3K inhibition (Thermo Fisher Scientific); conditions: 10-point curve, grouped by potency; read-out: IC50 P13K γ
Sequence (P48736 whole entry): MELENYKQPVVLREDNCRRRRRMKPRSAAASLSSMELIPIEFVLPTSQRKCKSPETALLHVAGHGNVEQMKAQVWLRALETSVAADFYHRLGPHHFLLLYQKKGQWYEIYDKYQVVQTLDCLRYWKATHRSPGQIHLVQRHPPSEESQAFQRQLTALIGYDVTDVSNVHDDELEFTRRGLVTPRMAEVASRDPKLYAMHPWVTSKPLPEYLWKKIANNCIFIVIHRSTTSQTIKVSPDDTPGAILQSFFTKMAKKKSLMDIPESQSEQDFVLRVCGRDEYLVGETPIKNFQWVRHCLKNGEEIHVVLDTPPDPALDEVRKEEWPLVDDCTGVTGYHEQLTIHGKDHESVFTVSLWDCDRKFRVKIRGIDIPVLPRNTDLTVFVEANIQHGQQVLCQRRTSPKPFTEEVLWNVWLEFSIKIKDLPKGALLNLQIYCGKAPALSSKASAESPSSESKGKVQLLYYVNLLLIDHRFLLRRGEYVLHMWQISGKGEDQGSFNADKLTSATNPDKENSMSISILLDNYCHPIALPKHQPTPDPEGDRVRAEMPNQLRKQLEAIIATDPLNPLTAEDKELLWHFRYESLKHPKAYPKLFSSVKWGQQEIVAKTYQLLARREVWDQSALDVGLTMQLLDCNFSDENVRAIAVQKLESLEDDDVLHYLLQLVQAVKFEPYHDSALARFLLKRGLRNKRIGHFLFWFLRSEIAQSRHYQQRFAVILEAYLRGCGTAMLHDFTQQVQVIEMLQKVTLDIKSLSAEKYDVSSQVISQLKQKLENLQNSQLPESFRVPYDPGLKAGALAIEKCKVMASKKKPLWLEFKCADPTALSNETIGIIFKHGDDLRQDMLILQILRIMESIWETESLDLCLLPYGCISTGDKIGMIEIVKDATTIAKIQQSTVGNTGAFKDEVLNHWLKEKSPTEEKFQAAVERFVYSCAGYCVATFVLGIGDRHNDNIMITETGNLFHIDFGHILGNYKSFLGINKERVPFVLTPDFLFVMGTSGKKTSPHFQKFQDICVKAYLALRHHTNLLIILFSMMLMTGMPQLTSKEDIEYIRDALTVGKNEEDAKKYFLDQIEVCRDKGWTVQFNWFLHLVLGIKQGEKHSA
Where a name gives a salt, the structure may show the parent alone.
Overview of recorded IC50 for various compounds

For orientation, consider the following solved cases.
compound="CN(C)C(=S)c1cc2cnc(Nc3ccc(-c4csc5c(=S)cc(N6CCOCC6)oc45)cc3)nc2n1C1CCCC1 [Compound 12]" result="5 to 50 µM"
compound="CN(C)C(=O)c1cc2cnc(Nc3ccc(-c4csc5c(=O)cc(N6CCOCC6)oc45)cn3)nc2n1C1CCCC1 [Compound 3]" result="0.1 to 1 µM"
compound="CN(C)C(=O)c1cc2cnc(Nc3ccc(-c4csc5c(=O)cc(N6CCNCC6)oc45)cc3)nc2n1C1CCCC1 [compound 2, hydrochloride]" result="5 to 50 µM"
compound="Cc1nc2c(F)cc(-c3nc(Nc4ccc(-c5csc6c(=O)cc(N7CCOCC7)oc56)cc4)ncc3F)cc2n1C(C)C [Compound 5]" result="> 50 µM"
compound="CC(=O)c1c(C)c2cnc(Nc3ccc(-c4csc5c(=O)cc(N6CCOCC6)oc45)cc3)nc2n(C2CCCC2)c1=O [Compound 6]" result="1 to 5 µM"

// output IC50; input CN(C)C(=O)c1cc2cnc(Nc3ccc(-c4csc5c(=O)cc(N6CCN(C(=O)OC(C)(C)C)CC6)oc45)cc3)nc2n1C1CCCC1 [Compound 18] ; system PI3K-gamma (Homo sapiens, UniProt P48736) 1 to 5 µM

// output IC50; input CN(C)C(=O)c1cc2cnc(Nc3ccc(-c4csc5c(=S)cc(N6CCOCC6)oc45)cc3)nc2n1C1CCCC1 [Compound 11] ; system PI3K-gamma (Homo sapiens, UniProt P48736) 5 to 50 µM

// output IC50; input COC(=O)c1cc(Nc2ncc3cc(C(=O)N(C)C)n(C4CCCC4)c3n2)ccc1-c1csc2c(=O)cc(N3CCOCC3)oc12 [Compound 7] ; system PI3K-gamma (Homo sapiens, UniProt P48736) 1 to 5 µM

// output IC50; input CN(C)C(=O)c1cc2cnc(Nc3ccc(-c4csc5c(=O)cc(N6CCOCC6)oc45)c(C(=O)O)c3)nc2n1C1CCCC1 [Compound 10] ; system PI3K-gamma (Homo sapiens, UniProt P48736) 0.1 to 1 µM

// output IC50; input CN(C)C(=O)c1cc2cnc(Nc3ccc(-c4csc5c(=O)cc(N6CCOCC6)oc45)cc3)nc2n1C1CCCC1 [Compound 1] ; system PI3K-gamma (Homo sapiens, UniProt P48736) 1 to 5 µM

// output IC50; input COC(=O)c1cc(-c2csc3c(=O)cc(N4CCOCC4)oc23)ccc1Nc1ncc2cc(C(=O)N(C)C)n(C3CCCC3)c2n1 [Compound 4] ; system PI3K-gamma (Homo sapiens, UniProt P48736) 1 to 5 µM
